Attribute: Percentage of the compound remaining in human liver microsome
Assay: Stability in human liver microsome
Conditions: with coenzyme, 2 μM, 37° C., 30 minutes

The following compounds have reported results that may help.
compound	measured
COC(=O)CNC(=O)OCOc1ccc([N+](=O)[O-])c2cccnc12	79.98%
CC(C)(C)OP(=O)(OCOc1ccc([N+](=O)[O-])c2cccnc12)OC(C)(C)C	91.20%
CC(C)OC(=O)[C@H](C)NP(=O)(OCOc1ccc([N+](=O)[O-])c2cccnc12)Oc1ccccc1 (stereo partly shown)	1.64%

Percentage of the compound remaining in human liver microsome for "O=C(CCCCC(=O)OCOc1ccc([N+](=O)[O-])c2cccnc12)OCOc1ccc([N+](=O)[O-])c2cccnc12" ? 0.00%

----------
Experiment: Stability in human plasma
Details: 37° C., 60 minutes
Attribute: Percentage of the compound remaining in plasma
Write the number in % without appending the unit.

compound	measured
CC(C)(C)OP(=O)(OCOc1ccc([N+](=O)[O-])c2cccnc12)OC(C)(C)C [Compound 70]	75.2
CCC(CC)C(=O)OC(C)Oc1ccc([N+](=O)[O-])c2cccnc12 (stereo not drawn) [Compound 51]	94.1

Let's switch to this compound now.
Percentage of the compound remaining in plasma for CN1CCN(C(=O)OCOc2ccc([N+](=O)[O-])c3cccnc23)CC1 [Compound 6] ? 95.0

----------
Experiment: Stability in dog liver microsome
Details: with coenzyme, 2 μM, 37° C., 30 minutes
I'd appreciate it if you could label each record using Percentage of the compound remaining in dog liver microsome and these ranges: low bracket (below 0.03%), middle bracket (0.03% to below 30%), high bracket (30% or more)

Some solved cases for reference:
compound	assigned class
CC(=O)OC(C)Oc1ccc([N+](=O)[O-])c2cccnc12 (stereo not drawn) [Compound 47, 1-(5-nitroquinolin-8-yloxy)ethyl acetate]	low bracket
CC(=O)N(C)CC(=O)OCc1cccnc1N(C)C(=O)OCOc1ccc([N+](=O)[O-])c2cccnc12 [Compound 65]	high bracket
O=C(CCCCC(=O)OCOc1ccc([N+](=O)[O-])c2cccnc12)OCOc1ccc([N+](=O)[O-])c2cccnc12 [Compound 46]	low bracket
CC(C)OC(=O)[C@H](C)NP(=O)(OCOc1ccc([N+](=O)[O-])c2cccnc12)Oc1ccccc1 (stereo partly drawn) [Compound 75]	middle bracket
O=C(OCOc1ccc([N+](=O)[O-])c2cccnc12)N1CCOCC1 [Compound 7]	middle bracket
CCC(CC)C(=O)OC(C)Oc1ccc([N+](=O)[O-])c2cccnc12 (stereo not drawn) [Compound 51]	middle bracket

Band assignment needed for CC(C)(C)OP(=O)(OCOc1ccc([N+](=O)[O-])c2cccnc12)OC(C)(C)C [Compound 70] please. high bracket

Band assignment needed for CC(C)C(=O)N1CCC[C@H]1C(=O)OCOc1ccc([N+](=O)[O-])c2cccnc12 [Compound 20] please. high bracket

Band assignment needed for CC(C)(C)OC(=O)N[C@@H](Cc1ccccc1)C(=O)OCOc1ccc([N+](=O)[O-])c2cccnc12 [Compound 13] please. low bracket

Band assignment needed for O=C(CCCCCCCO)OCOc1ccc([N+](=O)[O-])c2cccnc12 [Compound 10] please. low bracket

Band assignment needed for CC(=O)OCOc1ccc([N+](=O)[O-])c2cccnc12 [Compound 1, (5-nitroquinolin-8-yloxy)methyl acetate] please. middle bracket

Band assignment needed for CCC(CC)C(=O)OCOc1ccc([N+](=O)[O-])c2cccnc12 [Compound 5] please. middle bracket
